src = a melting point compilation (Tetko et al.; mined from patent text by program, amines drawn as free bases though some values may be those of a salt)

readout.name: melting point

Examples from the recorded data:
molecule: COc1cccc(CC(=O)Nc2cc(Cl)c(Cl)cc2[N+](=O)[O-])c1
melting point: 122 to 124 °C
//
molecule: CCC1CCc2[nH]cc3c(=O)n(-c4ccc(Cl)cc4)nc-3c2C1 (centres undefined)
melting point: 318 to 320 °C
//
molecule: O=C(c1cc(Cl)ccc1NC(c1ccccc1)(c1ccccc1)c1ccccc1)C(F)(F)F
melting point: 165 to 167 °C

What value of melting point has been reported for the following molecule? COC(=O)CNCc1ccc(OCc2ccccc2)cc1 57 to 58 °C

What value of melting point has been reported for the following molecule? COc1cccc(-n2c(-c3sc(Nc4ccc(Cl)cc4)nc3C)nc3ccccc3c2=O)c1 243 to 244 °C

What value of melting point has been reported for the following molecule? COCC1COc2cc3ncnc(Nc4cccc(C(F)(F)F)c4)c3cc2O1 (centres undefined) 280 to 282 °C

What value of melting point has been reported for the following molecule? ON=C(c1ccc(CN2CCOCC2)cc1)c1cccc2nc(N[C@@H]3CCc4ccccc43)ccc12 167 °C

What value of melting point has been reported for the following molecule? CS(=O)(=O)c1ccc(N2CCC3(CC2)Nc2cc(Cl)ccc2C(=O)O3)cc1 193 to 194 °C

What value of melting point has been reported for the following molecule? COc1ccc2c(c1)c(CC(=O)O)c(C)n2C(=O)c1ccc([N+](=O)[O-])o1 178 to 180 °C
